experiment: Apparent volume of distribution in rat at 10 mg/kg, iv measured upto 24 hrs by LC-MS/MS analysis; type: ADME, organism-based; conditions: in vivo, read-out: Vz
The following molecules are listed with their measured Vd values.
// unit must come after the numeric part

Example entries begin here.
CCNc1nc(OCCOC)nc2c1CN(C(=O)c1cc(C(C)C)c(O)cc1O)CC2 :: 29.6 L/kg
COCCOc1ncc2c(n1)CCN(C(=O)c1cc(C(C)C)c(O)cc1O)C2 :: 86.6 L/kg

Can you share its Vd? I mean this molecule: CCNc1nc(OCCOC)nc2c1CN(C(=O)c1cc(C(C)C)c(O)cc1O)CC2.Cl
29.6 L/kg

----------
molecular target: UniProt:P14625; test: Displacement of FITC-geldanamycin from N-terminal GRP94 (unknown origin) after 30 mins by fluorescence polarization competitive binding assay
readout-label: pIC50
Keep it numeric: pIC50 is minus log10 of the concentration in mol/L.

The following compounds have reported results that may help.
CC(C)c1cc(C(=O)N2Cc3ccc(CN4CCN(C)CC4)cc3C2)c(O)cc1O :: 7.66
Cc1ncc2c(n1)CCN(C(=O)c1cc(C(C)C)c(O)cc1O)C2 :: 6.61

// moving on: another record for pIC50
Any idea what its pIC50 is? The compound is CCCOc1ncc2c(n1)CCN(C(=O)c1cc(C(C)C)c(O)cc1O)C2
6.30

----------
assay: AUC (0 to t) in rat at 50 mg/kg, po measured upto 24 hrs by LC-MS/MS analysis; assay type: ADME, organism-based; parameters: route oral, dose 50 mg/kg, time <=24; details: in vivo
readout-label: AUC(0-t) at 24 h (ng·h/mL)
Numbers only here, please. The scale is ng·h/mL.

CCNc1nc(OCCOC)nc2c1CN(C(=O)c1cc(C(C)C)c(O)cc1O)CC2 :: 409

Now for another entry.
What AUC(0-t) at 24 h value was documented for this compound, COCCOc1ncc2c(n1)CCN(C(=O)c1cc(C(C)C)c(O)cc1O)C2 ?
265

----------
This listing pairs compounds with measured inhibition at 20 min, 10 µM.
biological target: CYP1A2 (Homo sapiens); assay: Inhibition of CYP1A2 in human liver microsomes at 10 uM using phenacetin as substrate preincubated for 5 mins followed by NADPH addition and measured after 20 mins by LC-MS/MS analysis relative to control; format: ADME; details: probe phenacetin, time 25 min
Sequence (P05177 whole entry): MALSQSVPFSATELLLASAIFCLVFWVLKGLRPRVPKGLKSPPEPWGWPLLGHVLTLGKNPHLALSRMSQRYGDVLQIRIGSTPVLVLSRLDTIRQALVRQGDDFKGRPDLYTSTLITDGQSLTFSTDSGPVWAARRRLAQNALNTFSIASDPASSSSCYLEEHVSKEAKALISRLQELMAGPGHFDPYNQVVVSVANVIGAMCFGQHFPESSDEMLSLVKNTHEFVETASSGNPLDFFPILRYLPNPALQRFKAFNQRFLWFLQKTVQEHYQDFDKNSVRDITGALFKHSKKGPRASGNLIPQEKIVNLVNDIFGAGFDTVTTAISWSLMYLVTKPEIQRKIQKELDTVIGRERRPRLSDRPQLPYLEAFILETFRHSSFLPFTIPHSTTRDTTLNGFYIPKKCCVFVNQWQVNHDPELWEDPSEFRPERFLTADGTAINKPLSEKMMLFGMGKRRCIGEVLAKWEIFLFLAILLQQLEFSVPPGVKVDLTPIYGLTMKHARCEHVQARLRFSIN
Write the number in % without appending the unit.

CCNc1nc(OCCOC)nc2c1CN(C(=O)c1cc(C(C)C)c(O)cc1O)CC2 :: 8

With those in mind, consider the next compound.
Could you share which inhibition at 20 min, 10 µM value was measured for O=c1cc(-c2ccccc2)oc2c1ccc1ccccc12 [ALPHA-NAPHTHOFLAVONE] ?
76

----------
biological target: CYP3A4 (Homo sapiens, UniProt P08684); assay: Inhibition of CYP3A4 in human liver microsomes at 10 uM using midazolam as substrate preincubated for 5 mins followed by NADPH addition and measured after 20 mins by LC-MS/MS analysis relative to control; assay type: ADME; conditions: probe midazolam, time 25 min
Sequence (P08684 whole entry): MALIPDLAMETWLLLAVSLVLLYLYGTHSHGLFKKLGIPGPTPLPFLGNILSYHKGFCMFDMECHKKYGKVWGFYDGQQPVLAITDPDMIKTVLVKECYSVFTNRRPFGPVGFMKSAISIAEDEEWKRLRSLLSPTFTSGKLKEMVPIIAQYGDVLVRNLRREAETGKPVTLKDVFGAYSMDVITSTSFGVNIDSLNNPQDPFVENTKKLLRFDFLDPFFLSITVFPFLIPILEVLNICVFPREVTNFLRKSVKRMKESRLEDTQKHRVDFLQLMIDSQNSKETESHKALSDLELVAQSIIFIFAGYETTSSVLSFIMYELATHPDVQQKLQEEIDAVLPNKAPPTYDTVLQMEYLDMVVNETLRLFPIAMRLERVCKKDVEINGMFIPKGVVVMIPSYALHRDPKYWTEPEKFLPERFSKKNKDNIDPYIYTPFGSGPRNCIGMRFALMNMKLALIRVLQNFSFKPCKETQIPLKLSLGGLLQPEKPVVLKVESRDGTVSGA
readout-label: inhibition at 20 min, 10 µM (%)
Report the figure in % without appending any unit label.

CCNc1nc(OCCOC)nc2c1CN(C(=O)c1cc(C(C)C)c(O)cc1O)CC2 :: 22

Now look at this entry.
Can you look up inhibition at 20 min, 10 µM on CYP3A4 (Homo sapiens, UniProt P08684) for CC(=O)N1CCN(c2ccc(OCC3COC(Cn4ccnc4)(c4ccc(Cl)cc4Cl)O3)cc2)CC1 (configuration not stated) ?
72

----------
Reported values of CLint for individual entries
test: Intrinsic clearance in human liver microsomes at 1 uM preincubated for 5 mins followed by NADPH addition and measured up to 120 mins by LC-MS/MS analysis; type: ADME, Microsome; details: 2 h, time <=125 min
Write down the numeric answer in mL/min/kg and omit the unit.

CCNc1nc(OCCOC)nc2c1CN(C(=O)c1cc(C(C)C)c(O)cc1O)CC2 :: 4.45
COCCOc1ncc2c(n1)CCN(C(=O)c1cc(C(C)C)c(O)cc1O)C2 :: 4.88

// switching to the query compound
Any idea what its CLint is? The compound is CCCOc1nc(OCCOC)nc2c1CN(C(=O)c1cc(C(C)C)c(O)cc1O)CC2
13.7

----------
assay: AUC (0 to t) in rat at 10 mg/kg, iv measured upto 24 hrs by LC-MS/MS analysis; format: ADME, organism-based; set-up: route intravenous, dose 10 mg/kg, time <=24; settings: in vivo
readout-label: AUC(0-t) at 24 h (ng·h/mL)
Note: unit ng·h/mL is implicit; provide only the numeric part.

COCCOc1ncc2c(n1)CCN(C(=O)c1cc(C(C)C)c(O)cc1O)C2 :: 757

Would you kindly look at the next entry?
Consider the compound CCNc1nc(OCCOC)nc2c1CN(C(=O)c1cc(C(C)C)c(O)cc1O)CC2 and give its measured AUC(0-t) at 24 h.
1930

----------
system: MDA-MB-468; assay: Antiproliferative activity against human MDA-MB-468 assessed as reduction in cell viability incubated for 72 hrs by MTT assay; type: functional, cell-based; settings: MDA-MB-468, 72 h
Entries and their pIC50 values follow.
# pIC50 = -log10(concentration in molar units)

Previously resolved entries follow.
CCNc1nc(OCCOC)nc2c1CN(C(=O)c1cc(C(C)C)c(O)cc1O)CC2 :: 6.87
COCCOc1ncc2c(n1)CCN(C(=O)c1cc(C(C)C)c(O)cc1O)C2 :: 6.76
CC(C)c1cc(C(=O)N2Cc3ccc(CN4CCN(C)CC4)cc3C2)c(O)cc1O :: 7.18

Next compound, please.
Look up pIC50 with MDA-MB-468 for this compound: CCCOc1nc(OCCOC)nc2c1CN(C(=O)c1cc(C(C)C)c(O)cc1O)CC2
6.86

----------
// endpoint IC50 / system Endoplasmin (Homo sapiens, UniProt P14625)
Supply the numeric figure in µM, leaving out any unit text.

COCCOc1nc2c(c(N(C)C)n1)CN(C(=O)c1cc(C(C)C)c(O)cc1O)CC2 :: 0.195
Cc1ncc2c(n1)CN(C(=O)c1cc(C(C)C)c(O)cc1O)C2 :: 0.05
CCOc1ncc2c(n1)CCN(C(=O)c1cc(C(C)C)c(O)cc1O)C2 :: 0.561

Fill blank: measured IC50 of the molecule CCOc1nc(OCCOC)nc2c1CN(C(=O)c1cc(C(C)C)c(O)cc1O)CC2 is ____.
0.608

What would you report for CCN(CC)CCOc1ncc2c(n1)CCN(C(=O)c1cc(C(C)C)c(O)cc1O)C2 ?
0.217

Could you do the same for COc1ncc2c(n1)CCN(C(=O)c1cc(C(C)C)c(O)cc1O)C2 , please?
0.498

Please answer likewise for CC(C)COc1ncc2c(n1)CCN(C(=O)c1cc(C(C)C)c(O)cc1O)C2
0.706

# repeat for CNc1nc(OCCOC)nc2c1CN(C(=O)c1cc(C(C)C)c(O)cc1O)CC2
0.196

Try the molecule CCN(CC)c1nc(OCCOC)nc2c1CN(C(=O)c1cc(C(C)C)c(O)cc1O)CC2
1.1

Now the same for CCNc1nc(OCCOC)nc2c1CN(C(=O)c1cc(C(C)C)c(O)cc1O)CC2
0.729

----------
tested on: MCF7; assay: cells; details: Homo sapiens, MCF7, 72 h
Property: pIC50; scope: individual compounds
Formally, pIC50 is defined as -log10 of the concentration c, with c in mol/L.

Reference set, count: 4
CCCN(CCC)c1ncc2c(n1)CCN(C(=O)c1cc(C(C)C)c(O)cc1O)C2 :: 5.51
CC(C)c1cc(C(=O)N2CCc3nc(N4CCCCC4)ncc3C2)c(O)cc1O :: 5.35
CCCCN(CCCC)c1ncc2c(n1)CCN(C(=O)c1cc(C(C)C)c(O)cc1O)C2 :: 5.95
CCCOc1nc(OCCOC)nc2c1CN(C(=O)c1cc(C(C)C)c(O)cc1O)CC2 :: 7.40

Item under review: CCNc1nc(OCCOC)nc2c1CN(C(=O)c1cc(C(C)C)c(O)cc1O)CC2 . Reported pIC50?
7.00

Quick one: Cc1ncc2c(n1)CN(C(=O)c1cc(C(C)C)c(O)cc1O)C2
5.67

Try CCN1CCN(c2ncc3c(n2)CCN(C(=O)c2cc(C(C)C)c(O)cc2O)C3)CC1 next.
5.84

Now this one: CC(C)c1cc(C(=O)N2CCc3nc(N4CCCC4)ncc3C2)c(O)cc1O
5.34

Proceed to CCOc1ncc2c(n1)CCN(C(=O)c1cc(C(C)C)c(O)cc1O)C2
6.21

# repeat for CCCNc1nc(OCCOC)nc2c1CN(C(=O)c1cc(C(C)C)c(O)cc1O)CC2
6.46

Would you kindly repeat that for CC(C)c1cc(C(=O)N2CCc3nc(OC4CCN(C)CC4)ncc3C2)c(O)cc1O ?
5.75

// same read-out, input: CCOc1nc(OCCOC)nc2c1CN(C(=O)c1cc(C(C)C)c(O)cc1O)CC2
6.74

Same thing, different compound: CC(C)c1cc(C(=O)N2CCc3nc(N(C)C)ncc3C2)c(O)cc1O
5.86

Would you kindly repeat that for CCN(CC)c1ncc2c(n1)CCN(C(=O)c1cc(C(C)C)c(O)cc1O)C2 ?
5.67

Taken from ChEMBL document CHEMBL4706476.
